Assay: The half life at a pH 1.2
Details: buffer
assayEndpoint: half-life (h)
# value in h; strip the unit string

Query O=P1(N(CCCl)CCCl)NCCCO1 (stereo unspecified) [CYCLOPHOSPHAMIDE ANHYDROUS] yields half-life of 33.6

====

Assay: The half life at a physiological pH
assayEndpoint: half-life (days)
Respond with the bare value in days.

Reported half-life for O=P1(N(CCCl)CCCl)NCCCO1 (stereo unspecified) [CYCLOPHOSPHAMIDE ANHYDROUS] was 6.6

====

Hi there, I'd appreciate the recorded LD50 for every entry that follows.
Assay: Lethal dose was evaluated after single intraperitoneal injection in mice
Assay type: toxicity, organism-based
Conditions: mouse, in vivo, ip
A bare number is not enough; add the unit after it.

The compound O=P1(O)OCCCNCCN1CCCl showed LD50 equal to 1000 mg/kg

Entry NCCCOP(=O)(O)O , LD50 reported as 1000 mg/kg

Just so you know, measured LD50 for O=P1(N(CCCl)CCCl)NCCCO1 (centres undefined) [CYCLOPHOSPHAMIDE ANHYDROUS] came out at 620 mg/kg

Measured LD50 of O=P(O)(O)OCCCNCCNCCCl : 700 mg/kg
